- target of assay: T1, recombinant human VEGF165 (human, UniProt P15692 27-191)
- T1 construct: mature; Isoform VEGF165 of the entry; also called hVEGF165; hVEGF
- T1 sequence (P15692 other isoform, or with tags, fused parts or gaps): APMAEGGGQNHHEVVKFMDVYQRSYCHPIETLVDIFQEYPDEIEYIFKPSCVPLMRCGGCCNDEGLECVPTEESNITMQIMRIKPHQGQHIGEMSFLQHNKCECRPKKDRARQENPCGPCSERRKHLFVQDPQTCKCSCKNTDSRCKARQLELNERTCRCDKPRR
- assay procedure: VEGFR1/Fc competition ELISA on coated hVEGF165; ratio to Lucentis
# Rel. activity hVEGR1 comp. ELISA (EC50Luc[nM]/EC50test[nM]) values compiled below
Just the number.

# count of solved cases: 2
binder: 578-min (scFv, also called EP578 min; Protein Nr; 820) scFv: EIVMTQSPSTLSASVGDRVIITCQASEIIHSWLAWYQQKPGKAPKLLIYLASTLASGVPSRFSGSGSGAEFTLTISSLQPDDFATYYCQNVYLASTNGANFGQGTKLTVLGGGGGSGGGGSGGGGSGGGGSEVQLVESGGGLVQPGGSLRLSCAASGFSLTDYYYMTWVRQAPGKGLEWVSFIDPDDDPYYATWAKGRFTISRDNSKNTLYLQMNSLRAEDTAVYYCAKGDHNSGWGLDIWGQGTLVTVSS
reading: 4.8
//
binder: 511-max (scFv, also called ESBA802) scFv: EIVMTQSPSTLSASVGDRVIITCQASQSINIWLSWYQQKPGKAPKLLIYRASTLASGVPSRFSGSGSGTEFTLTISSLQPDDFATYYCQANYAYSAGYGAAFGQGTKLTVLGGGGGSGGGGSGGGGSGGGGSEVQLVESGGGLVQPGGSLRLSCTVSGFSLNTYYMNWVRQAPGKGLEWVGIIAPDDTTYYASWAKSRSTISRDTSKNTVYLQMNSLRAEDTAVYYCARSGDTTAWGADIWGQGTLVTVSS
reading: 8

// switching to the query binder
Rel. activity hVEGR1 comp. ELISA (EC50Luc[nM]/EC50test[nM]) reading for 509-max (scFv, VL and VH tied by name; also called Protein Nr; 855) scFv: EIVMTQSPSTLSASVGDRVIITCQASQNIRIWLSWYQQKPGKAPKLLIYKASTLESGVPSRFSGSGSGTEFTLTISSLQPDDFATYYCQNNAHYSTNGGTFGQGTKLTVLGGGGGSGGGGSGGGGSGGGGSEVQLVESGGGLVQPGGSLRLSCTASGFSLSSYYMCWVRQAPGKGLEWVGCLDYVGDTDYASWAKGRFTISKDASKNTVYLQMNSLRAEDTAVYYCARTDDSRGWGLNIWGQGTLVTVSS : 13
